// reported IC50 per item
target_or_system: androgen receptor (AR) (Homo sapiens, UniProt P10275, T878A)
Sequence (P10275 1-920 T878A): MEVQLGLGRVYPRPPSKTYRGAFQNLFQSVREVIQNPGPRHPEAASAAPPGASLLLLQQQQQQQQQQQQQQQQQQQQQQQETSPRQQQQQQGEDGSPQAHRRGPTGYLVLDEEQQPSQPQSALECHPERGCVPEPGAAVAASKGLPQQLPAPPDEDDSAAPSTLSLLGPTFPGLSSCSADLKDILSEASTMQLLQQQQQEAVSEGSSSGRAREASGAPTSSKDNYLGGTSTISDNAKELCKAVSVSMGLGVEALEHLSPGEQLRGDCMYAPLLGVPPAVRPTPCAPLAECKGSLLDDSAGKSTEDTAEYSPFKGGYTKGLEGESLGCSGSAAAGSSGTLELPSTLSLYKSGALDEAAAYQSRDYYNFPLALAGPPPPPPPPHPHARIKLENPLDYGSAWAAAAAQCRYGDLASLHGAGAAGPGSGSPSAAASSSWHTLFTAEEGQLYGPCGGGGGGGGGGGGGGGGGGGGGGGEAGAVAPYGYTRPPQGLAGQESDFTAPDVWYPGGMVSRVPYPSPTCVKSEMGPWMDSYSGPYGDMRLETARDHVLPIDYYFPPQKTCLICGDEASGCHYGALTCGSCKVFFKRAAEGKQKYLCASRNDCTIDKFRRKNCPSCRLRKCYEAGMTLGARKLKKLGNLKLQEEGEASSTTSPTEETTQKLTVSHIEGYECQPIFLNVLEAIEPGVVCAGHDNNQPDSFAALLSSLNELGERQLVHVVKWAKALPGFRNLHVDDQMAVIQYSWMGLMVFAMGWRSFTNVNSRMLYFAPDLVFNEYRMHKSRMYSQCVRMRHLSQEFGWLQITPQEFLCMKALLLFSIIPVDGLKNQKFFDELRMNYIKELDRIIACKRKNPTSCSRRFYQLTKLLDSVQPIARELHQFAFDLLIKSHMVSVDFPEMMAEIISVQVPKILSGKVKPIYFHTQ
assay_name: Androgen-induced PSA (6.1 kb)-luciferase reporter assay in LNCaP cells (R1881 1 nM)
Assay type: cell-based
Set-up: endogenous in cells; host or cells: LNCaP
assay_conditions: 24 h, read-out: PSA-Luc IC50 Range

| compound | IC50 |
| --- | --- |
| CC(C)(c1ccc(OCC2CN(S(C)(=O)=O)C2)cc1)c1cc(Cl)c(OCCCl)c(C#N)c1 | 500 to 2000 nM |
| CS(=O)(=O)Nc1nccc(COc2ccc3c(cnn3-c3cc(Cl)c(OCCCl)c(C#N)c3)c2)n1 | > 2000 nM |
| CC(C)(c1ccc(-c2ccc3oc(NS(C)(=O)=O)nc3n2)cc1)c1cc(Cl)c(OCCCl)c(C#N)c1 | > 2000 nM |
| Cc1cc2cc(OCC34CC(NS(C)(=O)=O)(C3)C4)ccc2n1-c1cc(Cl)c(OCCCl)c(C#N)c1 | > 2000 nM |
| CC(C)(c1ccc(-c2cnc3nc(NS(C)(=O)=O)cnc3c2)cc1)c1cc(Cl)c(OCCCl)c(C#N)c1 [Compound A195] | > 2000 nM |
| CC(C)(c1ccc(-c2cnc3nc(NS(C)(=O)=O)ccc3n2)cc1)c1cc(Cl)c(OCCCl)c(C#N)c1 | 500 to 2000 nM |
| CC(C)(c1ccc(OCc2cnc(NS(C)(=O)=O)nc2N2CCNCC2)cc1)c1cc(Cl)c(OCCCl)c(C#N)c1 | < 500 nM |
| CC(C)(c1ccc(OCC23CCC(NS(C)(=O)=O)(C2)C3)cc1)c1cc(Cl)c(OCCCl)c(C#N)c1 | 500 to 2000 nM |
| CC(C)(c1ccc(OCc2cccc(S(C)(=O)=O)c2)cc1)c1cc(Cl)c(OCCCl)c(C#N)c1 | 500 to 2000 nM |
| CS(=O)(=O)Nc1nccc(OCC23CC(C(=O)c4ccc(OCCCl)cc4)(C2)C3)n1 | > 2000 nM |
| C[C@@H](Oc1ccc(C(C)(C)c2cc(Cl)c(OCCCl)c(C#N)c2)cc1)C12CC(NS(C)(=O)=O)(C1)C2 | 500 to 2000 nM |
| CS(=O)(=O)N[C@H]1CC[C@@H](Oc2ccc3c(ccn3-c3cc(Cl)c(OCCCl)c(C#N)c3)c2)C1 | 500 to 2000 nM |
| CS(=O)(=O)Nc1nccc(COc2ccc3c(c2)nnn3-c2cc(Cl)c(OCCCl)c(C#N)c2)n1 | > 2000 nM |
| CC(C)(c1ccc(OCc2ccnc(NS(C)(=O)=O)n2)cc1)c1cc(F)c(N2CC(O)C2)c(C#N)c1 | < 500 nM |
| CC(c1cc(Cl)c(OCCCl)c(C#N)c1)n1cc(-c2ccc3nc(NS(C)(=O)=O)ncc3c2)cn1 (stereo not drawn) | > 2000 nM |
